Values were extracted from patent US20050004130A1.

Target: recombinant mGluR1 (Homo sapiens, UniProt Q13255)
Sequence (Q13255 19-1194): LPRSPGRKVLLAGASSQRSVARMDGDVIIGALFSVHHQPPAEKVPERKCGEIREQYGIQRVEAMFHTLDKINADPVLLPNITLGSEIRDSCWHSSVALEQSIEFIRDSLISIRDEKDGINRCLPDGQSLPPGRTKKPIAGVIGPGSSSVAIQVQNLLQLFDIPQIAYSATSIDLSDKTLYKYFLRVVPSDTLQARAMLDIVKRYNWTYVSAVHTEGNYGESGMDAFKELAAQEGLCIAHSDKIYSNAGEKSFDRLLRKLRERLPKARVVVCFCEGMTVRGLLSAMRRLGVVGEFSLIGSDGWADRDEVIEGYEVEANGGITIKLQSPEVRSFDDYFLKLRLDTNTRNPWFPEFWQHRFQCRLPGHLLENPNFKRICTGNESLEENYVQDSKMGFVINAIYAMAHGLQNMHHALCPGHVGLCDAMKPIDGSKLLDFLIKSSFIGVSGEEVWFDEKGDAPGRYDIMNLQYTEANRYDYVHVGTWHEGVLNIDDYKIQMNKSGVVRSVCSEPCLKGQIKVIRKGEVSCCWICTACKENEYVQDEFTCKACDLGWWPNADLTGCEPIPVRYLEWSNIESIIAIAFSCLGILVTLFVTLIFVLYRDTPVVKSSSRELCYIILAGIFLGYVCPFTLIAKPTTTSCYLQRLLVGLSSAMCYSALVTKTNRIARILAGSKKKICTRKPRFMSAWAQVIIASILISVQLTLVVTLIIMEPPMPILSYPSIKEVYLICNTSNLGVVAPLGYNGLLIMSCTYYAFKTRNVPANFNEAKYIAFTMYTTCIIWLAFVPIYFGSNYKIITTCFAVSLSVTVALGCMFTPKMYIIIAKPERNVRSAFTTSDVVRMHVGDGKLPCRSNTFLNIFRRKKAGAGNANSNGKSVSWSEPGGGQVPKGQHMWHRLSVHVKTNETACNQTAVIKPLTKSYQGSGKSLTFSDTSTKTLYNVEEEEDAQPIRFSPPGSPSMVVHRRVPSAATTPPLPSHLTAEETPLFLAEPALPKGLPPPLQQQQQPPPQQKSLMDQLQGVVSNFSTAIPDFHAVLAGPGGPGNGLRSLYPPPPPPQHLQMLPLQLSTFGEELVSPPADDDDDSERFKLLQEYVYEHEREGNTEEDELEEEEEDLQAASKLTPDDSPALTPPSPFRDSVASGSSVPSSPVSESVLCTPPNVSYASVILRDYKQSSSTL
Experiment: Assay of Group I receptor antagonist activity (FLIPR [Ca2+]i mobilization; secondary IP3 turnover) in cells expressing mGluR1
pIC50: −log10 of the molar value.

- COMPOUND: "CC1CCc2nc(C(=O)N[C@H]3CC[C@H](C)CC3)cnc2C1 (relative stereo)"
  pIC50: 7.28

###

Target: human mGluR5d (Homo sapiens)
Construct: expressed in transfected cells
Sequence (P41594 21-942 isoform P41594-3 limits assumed): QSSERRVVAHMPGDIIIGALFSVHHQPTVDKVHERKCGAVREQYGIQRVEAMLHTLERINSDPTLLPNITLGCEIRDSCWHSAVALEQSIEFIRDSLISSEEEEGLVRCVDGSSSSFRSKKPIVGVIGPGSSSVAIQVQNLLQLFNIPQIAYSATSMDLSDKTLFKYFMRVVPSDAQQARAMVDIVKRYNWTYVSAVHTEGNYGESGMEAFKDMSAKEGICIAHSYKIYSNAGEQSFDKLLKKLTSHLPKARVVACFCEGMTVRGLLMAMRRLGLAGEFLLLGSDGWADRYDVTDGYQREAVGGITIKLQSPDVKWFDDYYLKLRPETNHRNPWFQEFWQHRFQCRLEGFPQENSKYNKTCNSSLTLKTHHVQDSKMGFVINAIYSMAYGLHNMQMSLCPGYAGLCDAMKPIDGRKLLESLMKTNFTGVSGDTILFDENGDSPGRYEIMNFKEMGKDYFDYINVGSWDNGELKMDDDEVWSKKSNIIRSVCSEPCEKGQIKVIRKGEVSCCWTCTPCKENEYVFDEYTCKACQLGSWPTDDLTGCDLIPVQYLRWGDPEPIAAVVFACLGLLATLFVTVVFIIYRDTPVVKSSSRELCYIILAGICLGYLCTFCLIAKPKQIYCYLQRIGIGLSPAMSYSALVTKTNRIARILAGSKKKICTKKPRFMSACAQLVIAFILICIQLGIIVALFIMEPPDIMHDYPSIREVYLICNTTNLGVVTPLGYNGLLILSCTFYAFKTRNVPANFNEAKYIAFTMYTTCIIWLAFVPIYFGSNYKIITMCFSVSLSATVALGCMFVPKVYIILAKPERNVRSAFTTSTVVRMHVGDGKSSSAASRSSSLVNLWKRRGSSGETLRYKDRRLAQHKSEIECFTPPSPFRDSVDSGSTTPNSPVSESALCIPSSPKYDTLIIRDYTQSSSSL
Experiment: Assay of Group I receptor antagonist activity (FLIPR [Ca2+]i mobilization; secondary IP3 turnover) in cells expressing mGluR5d
Assay type: cell-based
Conditions: read-out: mGluR5 IC50
pIC50: −log10 of the molar value.

- MOLECULE: "CC1CCc2nc(C(=O)N[C@H]3CC[C@H](C)CC3)cnc2C1 (relative stereo)"
  pIC50: 5.14
